subject of test: rh-α5β1 (Homo sapiens, UniProt P05556+P08648)
Sequence (P08648 42-894 limits assumed): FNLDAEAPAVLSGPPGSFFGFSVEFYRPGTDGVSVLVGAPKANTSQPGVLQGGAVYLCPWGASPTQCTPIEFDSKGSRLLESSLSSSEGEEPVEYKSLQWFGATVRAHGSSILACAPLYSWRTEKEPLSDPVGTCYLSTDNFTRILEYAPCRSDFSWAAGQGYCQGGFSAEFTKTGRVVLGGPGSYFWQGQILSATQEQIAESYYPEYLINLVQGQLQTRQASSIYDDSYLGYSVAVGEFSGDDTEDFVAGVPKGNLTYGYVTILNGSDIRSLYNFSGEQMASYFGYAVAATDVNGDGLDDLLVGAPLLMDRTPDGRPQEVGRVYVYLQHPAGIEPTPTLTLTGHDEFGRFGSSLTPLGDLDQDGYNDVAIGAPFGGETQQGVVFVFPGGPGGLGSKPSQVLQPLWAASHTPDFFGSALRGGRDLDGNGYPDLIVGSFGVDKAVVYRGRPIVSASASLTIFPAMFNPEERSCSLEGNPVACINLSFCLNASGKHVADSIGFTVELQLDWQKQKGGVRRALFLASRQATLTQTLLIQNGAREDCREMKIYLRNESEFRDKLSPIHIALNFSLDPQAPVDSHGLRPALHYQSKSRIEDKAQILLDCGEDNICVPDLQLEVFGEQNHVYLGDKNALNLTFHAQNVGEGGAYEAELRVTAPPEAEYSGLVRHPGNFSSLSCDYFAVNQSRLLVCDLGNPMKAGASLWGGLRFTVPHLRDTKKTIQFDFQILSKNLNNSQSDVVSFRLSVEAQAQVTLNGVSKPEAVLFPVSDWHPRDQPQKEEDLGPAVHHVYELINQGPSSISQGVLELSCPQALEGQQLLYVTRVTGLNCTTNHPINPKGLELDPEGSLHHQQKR
Sequence (P08648 895-995 limits assumed): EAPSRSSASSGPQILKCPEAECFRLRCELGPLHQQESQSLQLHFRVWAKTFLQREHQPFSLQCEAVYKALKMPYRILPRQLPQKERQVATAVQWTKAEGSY
Sequence (P05556 21-728 limits assumed): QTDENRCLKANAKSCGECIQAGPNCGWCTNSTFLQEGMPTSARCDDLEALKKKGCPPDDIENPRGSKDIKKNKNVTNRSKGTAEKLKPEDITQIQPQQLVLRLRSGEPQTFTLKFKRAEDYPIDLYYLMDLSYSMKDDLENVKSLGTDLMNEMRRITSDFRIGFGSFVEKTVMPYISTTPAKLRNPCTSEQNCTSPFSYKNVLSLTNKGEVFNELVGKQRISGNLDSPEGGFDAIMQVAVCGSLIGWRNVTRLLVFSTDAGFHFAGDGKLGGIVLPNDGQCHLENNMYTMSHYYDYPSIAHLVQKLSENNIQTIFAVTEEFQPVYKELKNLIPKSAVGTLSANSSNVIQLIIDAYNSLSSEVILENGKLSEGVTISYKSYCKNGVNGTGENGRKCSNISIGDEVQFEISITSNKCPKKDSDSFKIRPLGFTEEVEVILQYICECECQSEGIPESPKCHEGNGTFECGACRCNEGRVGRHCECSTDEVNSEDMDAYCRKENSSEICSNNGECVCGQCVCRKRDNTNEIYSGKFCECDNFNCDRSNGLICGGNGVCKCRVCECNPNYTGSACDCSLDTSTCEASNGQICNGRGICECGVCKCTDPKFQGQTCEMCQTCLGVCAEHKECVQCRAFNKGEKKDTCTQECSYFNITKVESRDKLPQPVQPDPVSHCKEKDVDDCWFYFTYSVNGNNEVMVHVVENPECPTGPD
procedure summary: Competition binding studies by Biolayer Interferometry (epitope groups)
test conditions: immobilized mAb A-15B08; secondary mAb pre-mixed with 20 nM rh-α5β1; relative to antigen alone
Procedure: Epitope analysis via competition binding studies was performed using Biolayer Interferometry (BLI) on the 6 antibodies selected as described in Example 5. […] Equilibrate the sensor (30 seconds (s))-->Load lead Ab on the sensor (700s)--->Quench (480s)--->Read baseline (480s)-->measure preincubated Ab+Ag association with loaded sensor (600s).
reported property: % Response (%)
Please give a number only; it is taken to be in %.

Recorded % Response for A2-7F01: anti-α5β1 antibody, VH SEQ ID NO:91, VL SEQ ID NO:92 (antibody, V domains shown, A2-7F01 VH Sequence; A2-7F01 VL Sequence) VH: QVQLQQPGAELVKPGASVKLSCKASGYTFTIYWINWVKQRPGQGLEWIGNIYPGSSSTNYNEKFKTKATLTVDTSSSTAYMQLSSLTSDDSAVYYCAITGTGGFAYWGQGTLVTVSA VL: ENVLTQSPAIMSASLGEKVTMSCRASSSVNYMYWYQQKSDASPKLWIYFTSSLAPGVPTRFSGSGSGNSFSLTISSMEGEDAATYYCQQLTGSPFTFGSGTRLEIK , please?
142.59
